The reported numbers originate from ChEMBL document CHEMBL1154843.

- system-name: Epidermal growth factor receptor (Homo sapiens) (UniProt P00533)
- Sequence (P00533 whole entry): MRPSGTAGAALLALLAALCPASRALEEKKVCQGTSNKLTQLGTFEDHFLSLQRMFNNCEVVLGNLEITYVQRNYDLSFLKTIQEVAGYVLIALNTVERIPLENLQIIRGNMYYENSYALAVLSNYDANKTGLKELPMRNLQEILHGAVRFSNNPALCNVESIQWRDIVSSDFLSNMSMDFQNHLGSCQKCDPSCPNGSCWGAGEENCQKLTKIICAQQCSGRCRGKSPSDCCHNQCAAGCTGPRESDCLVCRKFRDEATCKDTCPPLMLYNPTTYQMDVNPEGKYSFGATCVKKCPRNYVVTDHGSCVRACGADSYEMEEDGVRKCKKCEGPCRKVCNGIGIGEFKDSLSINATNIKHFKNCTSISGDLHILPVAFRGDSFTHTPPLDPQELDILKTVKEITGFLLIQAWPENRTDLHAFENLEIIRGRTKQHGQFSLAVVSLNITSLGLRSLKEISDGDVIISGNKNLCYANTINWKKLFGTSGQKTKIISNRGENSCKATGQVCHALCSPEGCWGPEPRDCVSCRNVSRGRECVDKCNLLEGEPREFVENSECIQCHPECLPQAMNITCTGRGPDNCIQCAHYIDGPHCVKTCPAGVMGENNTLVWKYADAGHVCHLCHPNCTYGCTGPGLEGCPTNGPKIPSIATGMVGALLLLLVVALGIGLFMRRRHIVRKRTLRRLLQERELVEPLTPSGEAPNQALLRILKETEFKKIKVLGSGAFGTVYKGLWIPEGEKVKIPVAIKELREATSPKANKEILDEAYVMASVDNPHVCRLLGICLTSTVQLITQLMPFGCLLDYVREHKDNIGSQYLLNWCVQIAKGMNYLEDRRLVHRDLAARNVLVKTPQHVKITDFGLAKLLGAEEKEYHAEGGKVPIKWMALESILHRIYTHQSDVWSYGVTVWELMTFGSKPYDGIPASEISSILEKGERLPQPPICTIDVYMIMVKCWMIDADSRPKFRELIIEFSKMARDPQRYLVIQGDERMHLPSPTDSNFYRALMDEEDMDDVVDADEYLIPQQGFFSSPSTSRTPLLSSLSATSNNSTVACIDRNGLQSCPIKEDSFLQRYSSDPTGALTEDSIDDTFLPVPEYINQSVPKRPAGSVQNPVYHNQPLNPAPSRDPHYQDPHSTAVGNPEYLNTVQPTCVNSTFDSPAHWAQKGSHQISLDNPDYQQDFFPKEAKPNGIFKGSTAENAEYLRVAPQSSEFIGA
- method-summary: Inhibition of EGFR at 1 mM
The source made the active and inactive calls. The calls are words filed in the database; no cut-off is given here.
measurement-label: inhibition

Use these answered entries as a reference point.
CC1=CCC[C@H]2[C@](C)(CC3=C(O)C(=O)C=C(NCCS(=O)(=O)O)C3=O)[C@@H](C)CC[C@]12C ... > 99%
CC[C@H](C)CNC1=CC(=O)C(O)=C(C[C@@]2(C)[C@@H]3CCCC(C)(C)C3=CC[C@@H]2C)C1=O ... inactive
CC1=CCC[C@H]2[C@](C)(CC3=C(O)C(=O)C=C(NCC(C)C)C3=O)[C@@H](C)CC[C@]12C ... inactive
CC1=CCC[C@H]2[C@](C)(CC3=C(O)C(=O)C=C(NCCC(C)C)C3=O)[C@@H](C)CC[C@]12C ... inactive

Moving on to the next compound.
Looking up `CC(C)CCNC1=CC(=O)C(O)=C(C[C@@]2(C)[C@@H]3CCCC(C)(C)C3=CC[C@@H]2C)C1=O` , I see its inhibition listed as inactive

----------
- system-name: Receptor tyrosine-protein kinase erbB-2 (Homo sapiens)
- method-summary: Inhibition of HER2 at 1 mM
Activity calls are given as the source filed them. No cut-off for these calls is given here.
measurement-label: inhibition

Use these answered entries as a reference point.
C[C@H]1CC=C2[C@@H](CCCC2(C)C)[C@]1(C)CC1=C(O)C(=O)C=C(NCCc2ccccc2)C1=O ... inactive
CC[C@H](C)CNC1=CC(=O)C(O)=C(C[C@@]2(C)[C@@H]3CCCC(C)(C)C3=CC[C@@H]2C)C1=O ... inactive
CC1=CCC[C@H]2[C@](C)(CC3=C(O)C(=O)C=C(NCCC(C)C)C3=O)[C@@H](C)CC[C@]12C ... 66%
CC1=CCC[C@H]2[C@](C)(CC3=C(O)C(=O)C=C(NCC(C)C)C3=O)[C@@H](C)CC[C@]12C ... 59%
CC(C)CCNC1=CC(=O)C(O)=C(C[C@@]2(C)[C@@H]3CCCC(C)(C)C3=CC[C@@H]2C)C1=O ... inactive

Looking up `CC1=CCC[C@H]2[C@](C)(CC3=C(O)C(=O)C=C(NCCc4ccccc4)C3=O)[C@@H](C)CC[C@]12C` , I see its inhibition listed as inactive

Looking up `C=C1CCC[C@H]2[C@](C)(CC3=C(O)C(=O)C=C(NC[C@@H](C)CC)C3=O)[C@@H](C)CC[C@]12C` , I see its inhibition listed as inactive

Looking up `CC[C@H](C)CNC1=CC(=O)C(O)=C(C[C@]2(C)[C@@H](C)CC[C@]3(C)C(C)=CCC[C@@H]23)C1=O` , I see its inhibition listed as inactive

Looking up `CC1=CCC[C@H]2[C@](C)(CC3=C(O)C(=O)C=C(NCCS(=O)(=O)O)C3=O)[C@@H](C)CC[C@]12C` , I see its inhibition listed as 52%

----------
- system-name: Epidermal growth factor receptor (Homo sapiens) (UniProt P00533)
- method-summary: Inhibition of EGFR at 1 mM
Calls of active or inactive are those of the source. No cut-off for these calls is given here.
measurement-label: inhibition

C=C1CCC[C@H]2[C@](C)(CC3=C(O)C(=O)C=C(NC[C@@H](C)CC)C3=O)[C@@H](C)CC[C@]12C ... inactive
CC1=CCC[C@H]2[C@](C)(CC3=C(O)C(=O)C=C(NCCc4ccccc4)C3=O)[C@@H](C)CC[C@]12C ... inactive
CC[C@H](C)CNC1=CC(=O)C(O)=C(C[C@]2(C)[C@@H](C)CC[C@]3(C)C(C)=CCC[C@@H]23)C1=O ... inactive
C[C@H]1CC=C2[C@@H](CCCC2(C)C)[C@]1(C)CC1=C(O)C(=O)C=C(NCCc2ccccc2)C1=O ... 76%
